Taken from ChEMBL document CHEMBL3351752.

Test system: Staphylococcus aureus
Assay: Antibacterial activity against Staphylococcus aureus ATCC 29213 assessed as growth inhibition
Format: functional
Please use Fulfilled for MIC under 0.1 µg/mL and Not fulfilled for everything else, ties included.

1) CCNC(=O)Nc1nc2cc(-c3cnc(C(C)(C)O)nc3)cc(-c3cc(CN4CC[C@@H](OC)C4)ccn3)c2s1 :: Not fulfilled
2) CCNC(=O)Nc1nc2cc(-c3cnc(C(C)(O)CO)nc3)cc(-c3ccccn3)c2s1 (racemic) :: Not fulfilled
3) CCNC(=O)Nc1nc2cc(-c3cnc(C4(O)CCCCC4)nc3)cc(-c3ccccn3)c2s1 :: Not fulfilled
4) CCNC(=O)Nc1nc2cc(-c3cnc(C(C)(C)O)nc3)cc(-c3cc(CN4CC(OC)C4)ccn3)c2s1 :: Not fulfilled
5) CCNC(=O)Nc1nc2cc(-c3cnc(N4CCC(CC)(C(=O)O)CC4)nc3)cc(/C=N/OC)c2s1 :: Not fulfilled
6) CCNC(=O)Nc1nc2cc(-c3cnc(C(O)(CC)CC)nc3)cc(-c3ccccn3)c2s1 :: Not fulfilled
7) CCNC(=O)Nc1nc2cc(-c3cnc(C(C)(C)O)nc3)cc(-c3cc(CN4CC(O)C4)ccn3)c2s1 :: Not fulfilled
8) CCNC(=O)Nc1nc2cc(-c3cnc([C@@H](O)[C@@H](O)C(F)(F)F)nc3)cc(-c3ccccn3)c2s1 (racemic) :: Not fulfilled
9) CCNC(=O)Nc1nc2cc(-c3cnc(C4(O)CCS(=O)(=O)CC4)nc3)cc(-c3ccccn3)c2s1 :: Not fulfilled
10) CCNC(=O)Nc1nc2cc(-c3cnc(CO)nc3)cc(-c3ccccn3)c2s1 :: Fulfilled
11) CCNC(=O)Nc1nc2cc(-c3cnc(C4(O)CCSCC4)nc3)cc(-c3ccccn3)c2s1 :: Not fulfilled
12) CCNC(=O)Nc1nc2cc(-c3cnc(C4(O)CCOCC4O)nc3)cc(-c3ccccn3)c2s1 (racemic) :: Not fulfilled
13) CCNC(=O)Nc1nc2cc(-c3cnc(C(C)(C)O)nc3)cc(-c3cc(CN4CC[C@@H](F)C4)ccn3)c2s1 :: Fulfilled
14) CCNC(=O)Nc1nc2cc(-c3cnc(C4(O)COC4)nc3)cc(-c3ccccn3)c2s1 :: Fulfilled
15) CCNC(=O)Nc1nc2cc(-c3cnc(C4(O)CCN(C)CC4)nc3)cc(-c3ccccn3)c2s1 :: Not fulfilled
16) CCNC(=O)Nc1nc2cc(-c3cnc(C(O)C(C)(C)C)nc3)cc(-c3ccccn3)c2s1 (racemic) :: Not fulfilled
17) CCNC(=O)Nc1nc2cc(-c3cnc(C(C)O)nc3)cc(-c3ccccn3)c2s1 (stereo not drawn) :: Fulfilled
18) CCCC(O)c1ncc(-c2cc(-c3ccccn3)c3sc(NC(=O)NCC)nc3c2)cn1 (racemic) :: Fulfilled
